Origin of measurements: PubChem BioAssay

Assay: basal S. cerevisiae growth modulation, no modifier, primary screen, OD600, strain BY4716, 24 h, basal condition (AID 1173)
Conditions: OD600, 24 h, higher = more signal, called active from +8 up or from −8 down
Calls of active or inactive are those of the source.
Recorded z-score, one value per entry.

Worked cases, answers included:
# Compound, Reported
rows = [
    ("COc1ccc(O[C@H]2C=C[C@@H](c3ccccc3)O[C@@H]2CON=C2[C@H]3CCn4c(=O)n(-c5ccccc5)c(=O)n4[C@H]3[C@H](O)[C@@H]3O[C@H]23)cc1", "0.422 (inactive)"),
    ("O=C(NN=C1C[C@@H](O)[C@@H](O)[C@@H]2[C@@H]3C(=O)N(C[C@@H]4CCCO4)C(=O)[C@@H]3CC[C@@H]12)OCc1ccccc1", "-0.485 (inactive)"),
    ("Cc1cc2c(nc1C)CCCCN2CC(C)ON=C[C@@H](C)[C@H](OCc1ccccc1)C(C)C (some centres not stated)", "-5.49 (inactive)"),
    ("C=CC[C@@H]1C=C[C@H](ON=C(C)CCC(=O)OC[C@H]2O[C@H](C#Cc3ccccc3)C=C[C@@H]2Oc2ccc(C)cc2)[C@@H](CO)O1", "1.09 (inactive)"),
    ("CC(=O)Nc1ccc([C@@H]2N[C@H](C(=O)O)CC[C@H]2C)cc1", "-0.236 (inactive)"),
]

-- ask Recorded z-score of `C#CCCCON=C1[C@H]2CCn3c(=O)n(C)c(=O)n3[C@H]2[C@H](O)[C@@H]2O[C@H]12` , please.
-- reply -0.492 (inactive)

-- ask Recorded z-score of `CCCNC(=O)OC[C@H]1O[C@H](CCON=C(C)CCN2CCCc3nc(C)c(C)cc32)C=C[C@@H]1Oc1ccc(OC)cc1` , please.
-- reply 0.766 (inactive)
